src = the supplement of paper PMC9694430

System: LOC_OS04G57630-cb004;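 note: purified Escherichia coli-expressed rice kinase domain construct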
method.summary: thermal shift delta Tm vs DMSO control; higher = stronger stabilization (binding)
experimental.parameters: 12.5 µM; protein concentration 2 µM
Quick reference: thermal shift delta Tm of the listed items.
Enter your answer as a number in °C; do not include the unit.

Example cases with answers are listed next.
O=C(NCc1cccc(O)c1)Nc1nc(-c2ccncc2)cs1 : 1.08
C=CC(=O)Nc1cccc(Oc2nc(Nc3ccc(N4CCN(C)CC4)cc3)nc3ccsc23)c1 : 1.01
O=C1NC(=O)/C(=C/c2cccc(C(F)(F)F)c2)S1 : 0.39

Data request, read-out thermal shift delta Tm, for `CCOc1cc2ncc(C#N)c(Nc3ccc(OCc4ccccn4)c(Cl)c3)c2cc1NC(=O)/C=C/CN(C)C`
1.3
